The values you see were collected from paper PMC11649115.

biological target: OATP1B1 (Homo sapiens); construct: expressed in transfected cells; host or cells: MDCK-II cells; experiment: Transporter mediated assay (substrate/inhibitor), MDCK-II cells; type: in vitro ADME; conditions: human, polarized monolayer of MDCK-II cells expressing OATP1B1; OATP1B1, No BSA, 100 μM
Sequence (Q9Y6L6 whole entry): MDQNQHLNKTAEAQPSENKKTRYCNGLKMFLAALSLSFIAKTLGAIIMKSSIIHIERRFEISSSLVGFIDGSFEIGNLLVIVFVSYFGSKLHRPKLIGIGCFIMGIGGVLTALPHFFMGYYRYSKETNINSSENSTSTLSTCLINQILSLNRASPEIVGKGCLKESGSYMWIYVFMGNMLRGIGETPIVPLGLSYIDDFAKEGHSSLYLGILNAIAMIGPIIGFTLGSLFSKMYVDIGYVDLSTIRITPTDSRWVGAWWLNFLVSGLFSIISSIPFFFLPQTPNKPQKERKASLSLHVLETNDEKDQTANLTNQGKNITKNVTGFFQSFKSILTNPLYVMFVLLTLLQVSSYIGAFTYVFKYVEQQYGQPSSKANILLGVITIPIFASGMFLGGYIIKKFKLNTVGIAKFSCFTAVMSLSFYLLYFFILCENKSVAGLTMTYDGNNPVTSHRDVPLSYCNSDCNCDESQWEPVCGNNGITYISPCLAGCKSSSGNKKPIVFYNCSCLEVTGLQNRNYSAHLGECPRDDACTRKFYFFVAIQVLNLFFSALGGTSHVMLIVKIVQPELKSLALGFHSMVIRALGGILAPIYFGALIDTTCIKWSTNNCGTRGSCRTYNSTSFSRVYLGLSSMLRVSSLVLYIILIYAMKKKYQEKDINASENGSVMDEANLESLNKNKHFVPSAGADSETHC
measure.name: inhibition at 100 µM (%)
Respond with the bare value in %.

q: Using known records, supply inhibition at 100 µM for CO[C@H]1/C=C/O[C@@]2(C)Oc3c(C)c(O)c4c(O)c(c(/C=N/N5CCN(C)CC5)c(O)c4c3C2=O)NC(=O)/C(C)=C\C=C\[C@H](C)[C@H](O)[C@@H](C)[C@@H](O)[C@@H](C)[C@H](OC(C)=O)[C@@H]1C [Rifampicin, reference compound]
a: 98.3
